The measurements presented in this section are drawn from patent US20240382475A1.

- Method Description: Pharmacokinetic evaluation in beagle dogs
- Format: in vivo
- Experimental Conditions: male, dog, plasma, Oral 2 mg/kg, read-out: Area under curve AUC0-t
Measurement Name: AUC(0-t) (ng·h/mL)
Number only, in ng·h/mL; omit the unit.

-- ask Need AUC(0-t) of COc1cc2nc(C)nc(N[C@H](C)c3cccc(C#N)c3C)c2cc1N1CCC(C)(O)CC1 [Compound 11] , thanks.
-- reply 3510

* * *

- Method Description: Pharmacokinetic evaluation in beagle dogs
- Assay type: in vivo
- Experimental Conditions: male, dog, plasma, iv, injection 0.5 mg/kg, read-out: Half-life T1/2 (converted)
Measurement Name: half-life (h)
Lab book: enter the figure in h, no units written.

-- ask For `COc1cc2nc(C)nc(N[C@H](C)c3cccc(C#N)c3C)c2cc1N1CCC(C)(O)CC1` , what is its reported half-life?
-- reply 2.81
